In this section we review reported screen value values for a set of variants.
B1: NCOA2 peptide 1073-1088 (Nuclear receptor coactivator 2), 16-mer library wild type / NSP3 UBl1 (ORF1ab Nsp3a Ub1, residues 819-925) (parent)
chain 1: PSDEGALLDQLYLALR
chain 2: APTKVTFGDDTVIEVQGYKSVNITFELDERIDKVLNEKCSAYTVELGTEVNEFACVVADAVIKTLQPVSELLTPLGIDLDEWSMATYYLFDESGEFKLASHMYCSFY

# Variants of: B1
# DETAILS: with NSP3 UBl1 (ORF1ab Nsp3a Ub1, residues 819-925); bait immobilised on MaxiSorp plates (10 µg), library pre-cleared on GST, 2 h binding at 4 °C, five washes; one round per day, days 1-4; value from days 2 and 3; keep out of graded; scale: average fractional NGS count over selection days 2 and 3
READOUT: screen value

* chain 1 PSDEGALLDLLYLALR [chain 1 Q10L] | 0
* chain 1 PSDEGALLDQLYLALQ [chain 1 R16Q] | 0.00132
* chain 1 PSDEGALLDQLYLILR [chain 1 A14I] | 0
* chain 1 PSEEGALLDQLYLALR [chain 1 D3E] | 7.04e-06
* chain 1 PSDEGRLLDQLYLALR [chain 1 A6R] | 1.8e-05
* chain 1 PSDEGASLDQLYLALR [chain 1 L7S] | 0
* chain 1 PSDEGALLDQLYEALR [chain 1 L13E] | 0
* chain 1 PSDEGALLEQLYLALR [chain 1 D9E] | 2.36e-05
* chain 1 PSDEGALLDQLVLALR [chain 1 Y12V] | 0
* chain 1 PADEGALLDQLYLALR [chain 1 S2A] | 1.93e-05
* chain 1 PSDEGALLDQLALALR [chain 1 Y12A] | 0
* chain 1 PSDEGALLDQLYLALF [chain 1 R16F] | 0.000746
* chain 1 PSDEGALSDQLYLALR [chain 1 L8S] | 0
* chain 1 PSDEGALLDQLYLALT [chain 1 R16T] | 0.000892
* chain 1 PSDEGALLDQLYLALS [chain 1 R16S] | 4.51e-05
* chain 1 PSDEGALLTQLYLALR [chain 1 D9T] | 7.34e-06
* chain 1 PSDEGFLLDQLYLALR [chain 1 A6F] | 1.11e-05
* chain 1 PSDEGALLDQLSLALR [chain 1 Y12S] | 0
* chain 1 PSDEGALLDQLYLQLR [chain 1 A14Q] | 0
* chain 1 PGDEGALLDQLYLALR [chain 1 S2G] | 1.09e-05
* chain 1 PSDEGALLDQLYLDLR [chain 1 A14D] | 0
* chain 1 PSDEGALLDQLYLALY [chain 1 R16Y] | 0.0506
